Reference source: patent US20200317816A1

subject of test: anti-FXI/FXIa antibody NOV1401
Sequence (VH, as listed by the source, chain 1 of 2): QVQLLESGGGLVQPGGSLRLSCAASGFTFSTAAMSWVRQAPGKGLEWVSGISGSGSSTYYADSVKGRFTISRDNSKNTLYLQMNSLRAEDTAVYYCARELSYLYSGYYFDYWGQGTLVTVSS
Sequence (VL, as listed by the source, chain 2 of 2): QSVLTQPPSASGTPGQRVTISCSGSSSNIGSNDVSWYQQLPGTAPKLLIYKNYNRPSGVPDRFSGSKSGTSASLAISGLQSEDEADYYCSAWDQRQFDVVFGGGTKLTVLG
assay comment: cell-based or functional assay
observable: percentage reversal of NOV1401 aPTT prolongation, NOV1401/anti NOV1401 ratio 1/1 (n/n) (%)
Form entry: value (%) — number only.

• IDT10 anti-NOV1401 Fab (Fab, V domains shown, Human Fab; The heavy chain entry is VH-CH1 (Fd); also called antidote) VH: QVQLVQSGAEVKKPGASVKVSCKASGYTFTNYYVHWVRQAPGQGLEWMGWINPYSGNTNYAQKFQGRVTMTRDTSISTAYMELSRLRSEDTAVYYCARGASSIRMSYYLDVWGQGTLVTVSS VL: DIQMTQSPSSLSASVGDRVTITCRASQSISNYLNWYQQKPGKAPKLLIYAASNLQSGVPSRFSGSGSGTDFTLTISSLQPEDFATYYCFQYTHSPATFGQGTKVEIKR = 12

query: percentage reversal of NOV1401 aPTT prolongation, NOV1401/anti NOV1401 ratio 1/1 (n/n) for IDT8 anti-NOV1401 Fab (Fab, V domains shown, Human Fab; The heavy chain entry is VH-CH1 (Fd); also called antidote) VH: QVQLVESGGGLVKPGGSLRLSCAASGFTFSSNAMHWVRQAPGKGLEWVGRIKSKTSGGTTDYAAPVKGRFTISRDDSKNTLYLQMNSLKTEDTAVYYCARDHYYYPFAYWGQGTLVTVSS VL: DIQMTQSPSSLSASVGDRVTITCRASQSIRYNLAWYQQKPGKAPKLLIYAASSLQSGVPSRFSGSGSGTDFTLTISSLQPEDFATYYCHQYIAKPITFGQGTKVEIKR ?
result: 8
